Target: HCV NS5b RNA dependent RNA polymerase (Hepatitis C virus genotype 1a, UniProt P27958)
Sequence (P27958 2421-3011): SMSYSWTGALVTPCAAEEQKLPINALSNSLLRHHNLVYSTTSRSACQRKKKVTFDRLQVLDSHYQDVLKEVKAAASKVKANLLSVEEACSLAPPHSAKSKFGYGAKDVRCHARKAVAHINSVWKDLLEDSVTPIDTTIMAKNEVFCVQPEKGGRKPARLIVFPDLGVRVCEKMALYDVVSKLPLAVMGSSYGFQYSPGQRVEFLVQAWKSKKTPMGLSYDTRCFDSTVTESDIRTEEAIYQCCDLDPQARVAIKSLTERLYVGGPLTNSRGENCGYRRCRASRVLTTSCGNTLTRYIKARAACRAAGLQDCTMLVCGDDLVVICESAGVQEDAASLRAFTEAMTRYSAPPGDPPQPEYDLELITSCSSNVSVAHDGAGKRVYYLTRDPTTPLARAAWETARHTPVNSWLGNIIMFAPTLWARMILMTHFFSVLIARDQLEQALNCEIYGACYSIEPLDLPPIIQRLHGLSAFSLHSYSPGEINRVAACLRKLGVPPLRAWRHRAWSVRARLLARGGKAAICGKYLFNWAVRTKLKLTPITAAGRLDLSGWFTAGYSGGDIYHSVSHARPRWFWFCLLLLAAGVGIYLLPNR
Test: HCV NS5b RNA dependent RNA polymerase inhibition (scintillation proximity assay)
Type: biochemical
Details: concentration for 50% inhibition, class symbols; read-out: NS5B Inhibitory Activity
measurement_type: IC50

These recorded examples may help you get a feel for the data.
| compound | IC50 |
| --- | --- |
| O=C(O)/C(=C/c1ncc(-c2ccccc2)o1)NC(=O)c1ccccc1 [Compound 10] | < 10 µM |
| O=C(O)/C(=C/c1csc(-c2ccccc2Cl)n1)NC(=O)c1ccccc1 [Compound 9] | < 10 µM |
| O=C(O)/C(=C/c1cccc(-c2cccnc2)c1)NC(=O)c1ccccc1 [Compound 11] | > 30 µM |

Query compound follows.
What the record says about O=C(O)/C(=C/c1cnc(-c2ccccc2Cl)[nH]1)NC(=O)c1ccccc1 [Compound 12] : IC50 is > 30 µM

Values compiled from patent US7041690B2.
